system.tested: galectin-3 (Homo sapiens (Human))
experimental.details: Fluorescence anisotropy assay, inhibition of galectin / fluorescein tagged saccharide probe interaction
Labelling field: enter 1 if recorded Kd is less than 40 nM. Enter -1 if it equals or exceeds that cut-off.

Examples from the recorded data:
compound	class
CO[C@@H]1[C@@H](n2cc(-c3cc(F)c(F)c(F)c3)nn2)[C@@H](O)[C@@H](CO)O[C@@H]1Sc1cc(Cl)cnc1C1=CCNCC1 [Example 28]	1
COC1[C@@H](Sc2cc(Cl)ccc2C(=O)N(C)C)OC(CO)[C@H](O)[C@@H]1n1cc(-c2cc(F)c(F)c(F)c2)nn1 (stereo partly drawn) [Example 3]	1
CO[C@@H]1[C@@H](n2cc(-c3cc(F)c(F)c(F)c3)nn2)[C@@H](O)[C@@H](CO)O[C@@H]1Sc1cc(Cl)cnc1C1=CCNC1 [Example 29]	-1
C#Cc1cnc(C#N)c(S[C@H]2O[C@H](CO)[C@H](O)[C@H](n3cc(-c4cc(F)c(C)c(F)c4)nn3)[C@H]2OC)c1 [Example 57]	1
OC[C@H]1O[C@H](Sc2cncc(Br)c2)[C@H](OCC(O)C(F)(F)F)[C@@H](n2cc(-c3cc(F)c(F)c(F)c3)nn2)[C@H]1O (stereo partly drawn) [Example 5]	-1

Given CO[C@@H]1[C@@H](n2cc(-c3cc(F)c(F)c(F)c3)nn2)[C@@H](O)[C@@H](CO)O[C@@H]1Sc1cc(Cl)cnc1-c1ncco1 [Example 30] , is recorded Kd strictly lower than 40 nM?
-1

Decide: Kd of COC1[C@@H](Sc2cc(Cl)cnc2N2CC3(COC3)C2)OC(CO)[C@H](O)[C@@H]1n1cc(-c2cc(F)c(F)c(F)c2)nn1 (stereo partly drawn) [Example 10] strictly below 40 nM?
1

Could you please tell me whether Kd recorded for C#Cc1cncc(S[C@H]2O[C@H](CO)[C@H](O)[C@H](n3cc(-c4cc(F)c(Cl)c(F)c4)nn3)[C@H]2OC)c1 [Example 54] is less than 40 nM?
1

====

system.tested: galectin-3 (Homo sapiens (Human), UniProt P17931)
Sequence (P17931 whole entry): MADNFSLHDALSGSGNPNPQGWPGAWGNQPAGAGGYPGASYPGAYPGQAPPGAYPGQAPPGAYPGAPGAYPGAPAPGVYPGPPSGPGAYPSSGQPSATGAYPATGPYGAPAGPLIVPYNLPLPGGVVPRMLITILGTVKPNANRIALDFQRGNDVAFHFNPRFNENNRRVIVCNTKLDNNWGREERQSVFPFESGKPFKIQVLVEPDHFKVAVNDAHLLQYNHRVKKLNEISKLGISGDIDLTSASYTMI
experimental.details: Fluorescence anisotropy assay, inhibition of galectin / fluorescein tagged saccharide probe interaction
Type: binding
Reported Kd values for the following molecules.
Give the figure together with its unit, number first.

// Kd lookup, molecule = `CO[C@@H]1[C@@H](n2cc(-c3cc(F)c(F)c(F)c3)nn2)[C@@H](O)[C@@H](CO)O[C@@H]1Sc1cc(Cl)cnc1-c1nccs1` , result: 300 nM

Record COC1[C@@H](Sc2cc(Cl)ccc2C(=O)N(C)C)OC(CO)[C@H](O)[C@@H]1n1cc(-c2cc(F)c(Cl)c(F)c2)nn1 (stereo partly drawn) , field Kd: 14 nM

Quick note, Kd for `CO[C@@H]1[C@@H](n2cc(-c3cc(F)c(Cl)c(F)c3)nn2)[C@@H](O)[C@@H](CO)O[C@@H]1Sc1cc(C)cnc1C#N` landed at 50 nM

====

system.tested: galectin-3 (Homo sapiens (Human))
experimental.details: Fluorescence anisotropy assay, inhibition of galectin / fluorescein tagged saccharide probe interaction
pKd by entry:
pKd is a log-scale quantity: -log10 of the concentration expressed in molar.

> print(dat)
                                   compound  reported.value
1  OC[C@H]1O[C@H](Sc2cncc(Br)c2)[C@H](OCCF)[C@@H](n2cc(-c3cc(F)c(F)c(F)c3)nn2)[C@H]1O            7.70

Now examine the next entry.
The compound `CO[C@@H]1[C@@H](n2cc(-c3ccc(Cl)c(C)n3)nn2)[C@@H](O)[C@@H](CO)O[C@@H]1Sc1cncc(Cl)c1` showed pKd equal to 6.06
